Every entry's value here was drawn from PubChem BioAssay (NCI).

- System: OVCAR-8 ovarian
- TEST DETAILS: NCI-60 one-dose screen, 48 h (100 = growth as untreated, 0 = no growth, -100 = all killed)
- CONDITION DESCRIPTION: 10 µM unless noted
The panel holds about 83,000 compounds, 20% with a hit somewhere; the sample as a whole holds those more often.
RECORDED METRIC: growth (%)

compound=COc1ccc(-c2csc(NC(=O)N3CCN(c4cc5c(cc4F)c(=O)c(C(=O)O)cn5C4CC4)CC3)n2)cc1 recorded_metric=growth observed_result=3.75
compound=Cc1cccc2c1S/C(=C/c1ccc([N+](=O)[O-])cc1)C2=O recorded_metric=growth observed_result=105
compound=Cn1cc(-c2cc3ncnc(Nc4ccc(CC(=O)Nc5cc(C(C)(C)C)on5)cc4)c3s2)cn1 recorded_metric=growth observed_result=40.7
compound=O=C(Nc1ccc(I)cc1F)c1cc(I)ccc1O recorded_metric=growth observed_result=12.7
compound=COc1ccc(-c2ncnc3c2ncn3CC#CCCl)cc1 recorded_metric=growth observed_result=65.3
compound="CCN1C(=O)N(CC)C2Nn3c(s/c(=C4\\C(=O)N(CC(C)C)c5ccccc54)c3=O)=NC21 (centres undefined)" recorded_metric=growth observed_result=44.7
compound="CC1=C([Se]CC(OC(=O)[C@@H](CSSC(C)(C)C)NC(=O)OC(C)(C)C)C(=O)NC(C)(C)C)C(=O)c2ccccc2C1=O (some centres undefined)" recorded_metric=growth observed_result=-73.7
compound=c1ccc(-c2nc3nonc3nc2-c2ccccc2)cc1 recorded_metric=growth observed_result=72.8
compound="COc1ccc2cc(C(C)C(=O)Nc3ccc(-c4n[nH]c(=S)n4C4CCCCC4)cc3)ccc2c1 (centres undefined)" recorded_metric=growth observed_result=75.6
compound=O=C1/C(=C/c2ccccc2[N+](=O)[O-])Oc2ccc(O)c(O)c21 recorded_metric=growth observed_result=25.5
compound=CCOC(=O)c1cn2ncnc(Oc3ccc(NC(=O)NCCN(C)C)c(Cl)c3)c2c1C recorded_metric=growth observed_result=78.9
compound=Cn1cc(C(=O)c2nc(-c3cn(C)c4ccc(F)cc34)no2)c2cc(F)ccc21 recorded_metric=growth observed_result=95.5
compound=CCCCCCCCCCCCCCCCCCOc1ccccc1CC(=O)OCC[N+](CC)(CC)CC recorded_metric=growth observed_result=17.7
compound=Fc1cc2c(cc1Cl)N(c1ncnc3ccc(-c4cnc5cnccn45)cc13)CC2 recorded_metric=growth observed_result=91.4
compound=O=S(=O)(Nc1ccc(-c2nc(-c3cccc(OCCN4CCOCC4)c3)c(-c3ccnc(Br)c3)[nH]2)cc1)c1ccccc1 recorded_metric=growth observed_result=32.3
compound=Cc1ccc(/C=N\NC(=O)c2[nH]c3ccc(F)cc3c2-c2ccccc2)cc1 recorded_metric=growth observed_result=16.6
compound=O=C(CCN1C(=O)/C(=C/c2ccc(O)cc2)SC1=S)Nc1ccc(Cl)cc1 recorded_metric=growth observed_result=97
compound="CCCCCCN1C(=O)/C(=c2\\sc3n(c2=O)C2C(NN=3)N(CC)C(=O)N2CC)c2ccccc21 (centres undefined)" recorded_metric=growth observed_result=-22.3
compound=CN1CCN(c2ccc(-c3cc4c(Nc5ccc(F)c(Cl)c5)ncnn4c3)cn2)CC1 recorded_metric=growth observed_result=77.1
